# Lookup of reported furin cleavage Z-score keyed by entry
# subjectOfTest: furin, P09958
# Sequence (P09958 whole entry): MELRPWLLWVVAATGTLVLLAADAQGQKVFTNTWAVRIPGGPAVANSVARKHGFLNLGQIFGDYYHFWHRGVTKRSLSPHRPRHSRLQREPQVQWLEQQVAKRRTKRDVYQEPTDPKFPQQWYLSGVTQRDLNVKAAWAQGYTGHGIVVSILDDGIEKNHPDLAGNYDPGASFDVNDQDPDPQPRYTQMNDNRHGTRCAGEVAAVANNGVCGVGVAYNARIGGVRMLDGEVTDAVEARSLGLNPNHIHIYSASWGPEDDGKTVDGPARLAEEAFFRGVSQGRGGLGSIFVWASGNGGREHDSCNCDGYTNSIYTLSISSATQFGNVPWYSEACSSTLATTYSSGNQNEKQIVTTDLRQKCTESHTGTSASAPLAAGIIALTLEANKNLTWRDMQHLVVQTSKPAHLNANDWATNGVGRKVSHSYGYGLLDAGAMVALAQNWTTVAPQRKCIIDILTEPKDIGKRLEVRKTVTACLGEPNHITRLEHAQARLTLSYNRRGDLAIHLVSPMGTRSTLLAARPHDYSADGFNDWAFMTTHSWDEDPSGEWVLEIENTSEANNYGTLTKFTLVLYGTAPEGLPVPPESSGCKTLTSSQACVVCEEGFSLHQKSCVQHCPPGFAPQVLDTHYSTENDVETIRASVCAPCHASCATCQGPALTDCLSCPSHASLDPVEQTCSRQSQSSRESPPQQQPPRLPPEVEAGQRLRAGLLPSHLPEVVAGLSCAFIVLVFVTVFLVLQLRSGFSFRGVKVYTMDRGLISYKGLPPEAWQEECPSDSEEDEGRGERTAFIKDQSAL
# assayProtocol: furin cleavage Z-score vs untreated control; higher = more cleavage, active = 3.5 or more, inactive = 1 or less, 8 variable residues between constant flanks;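 further: purified furin at 1:10 enzyme:substrate in 50 mM HEPES pH 7.5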
# experimentalConditions: 7.5 min
The list shows a part of the results. No count for the full screen is at hand.
The answer should be a number; do not append a unit.

Below: 2 sequences and their reported furin cleavage Z-score.
1. CAASRCWVAMAGNASASA [HC278] :: 1.39
2. CAVRRRVQRMAGNASASA [FS-1662] :: 9.65

Record summary for CAGEGAVQWMAGNASASA [HC1115] : reported furin cleavage Z-score = -1.9

Record summary for CAIFLRLKRRAGNASASA [FS-800] : reported furin cleavage Z-score = 3.63

Record summary for CAVRRRSVQQAGNASASA [FS-2856] : reported furin cleavage Z-score = 3.6

Record summary for CAETRRERRRAGNASASA [FS-1121] : reported furin cleavage Z-score = 3.87

Record summary for CAVRRRAADQAGNASASA [FS-3143] : reported furin cleavage Z-score = -0.697

# credit: the supplement of paper PMC3545927
